Molecular target: PARG (Homo sapiens, UniProt Q86W56)
Sequence (Q86W56 whole entry): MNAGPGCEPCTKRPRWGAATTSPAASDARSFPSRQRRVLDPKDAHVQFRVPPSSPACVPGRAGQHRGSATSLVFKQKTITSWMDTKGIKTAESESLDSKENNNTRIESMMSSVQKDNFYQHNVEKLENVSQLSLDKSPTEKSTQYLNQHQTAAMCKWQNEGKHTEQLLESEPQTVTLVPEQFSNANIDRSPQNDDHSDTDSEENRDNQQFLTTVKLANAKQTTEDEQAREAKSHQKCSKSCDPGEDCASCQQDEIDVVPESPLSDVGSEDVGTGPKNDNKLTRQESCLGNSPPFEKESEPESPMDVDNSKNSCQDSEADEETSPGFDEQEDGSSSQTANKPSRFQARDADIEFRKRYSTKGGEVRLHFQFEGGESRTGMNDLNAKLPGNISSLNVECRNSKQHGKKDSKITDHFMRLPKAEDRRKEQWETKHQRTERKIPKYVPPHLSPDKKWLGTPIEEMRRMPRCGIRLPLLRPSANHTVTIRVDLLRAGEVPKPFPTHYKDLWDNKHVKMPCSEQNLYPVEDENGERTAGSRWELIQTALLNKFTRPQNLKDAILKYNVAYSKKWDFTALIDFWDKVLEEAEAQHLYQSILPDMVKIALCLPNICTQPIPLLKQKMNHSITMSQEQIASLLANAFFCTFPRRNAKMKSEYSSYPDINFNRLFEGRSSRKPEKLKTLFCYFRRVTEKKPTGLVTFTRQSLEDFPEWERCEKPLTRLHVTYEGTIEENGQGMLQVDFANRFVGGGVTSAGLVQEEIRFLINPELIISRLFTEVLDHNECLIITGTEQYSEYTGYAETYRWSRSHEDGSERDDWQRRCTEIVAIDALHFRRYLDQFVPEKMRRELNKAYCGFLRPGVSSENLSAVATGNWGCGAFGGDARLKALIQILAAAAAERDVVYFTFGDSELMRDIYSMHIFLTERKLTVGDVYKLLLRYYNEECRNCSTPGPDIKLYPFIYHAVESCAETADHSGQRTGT
Assay: Biochemical assay (PARG, TFMU-ADPr substrate)
Conditions: PARG, TFMU-ADPr substrate
readoutKind: IC50 (nM)

>  <molecule>
N#CC1(NS(=O)(=O)c2cc(N3CCC(O)CC3)c3cnc(-c4nnc(C(F)F)s4)n3c2)CC1 [Example 68]

>  <IC50 (nM)>
25.1

$$$$
>  <molecule>
CC1(NS(=O)(=O)c2cc(N3CCN(C(=O)c4ccc5c(c4)OCO5)CC3)c3cnc(-c4nnc(C(F)(F)F)s4)n3c2)CC1 [Example 307]

>  <IC50 (nM)>
4.13

$$$$
>  <molecule>
[2H]c1nc(-c2nnc(C(F)F)s2)n2cc(S(=O)(=O)NC3(CF)COC3)c(F)c(N3CCN(C(=O)C(C)C)CC3)c12 [Example 154]

>  <IC50 (nM)>
8.22

$$$$
>  <molecule>
CN1CC(F)(F)C[C@@H]1C(=O)N1CCN(c2cc(S(=O)(=O)NC3(C)CC3)cn3c(-c4nnc(C(F)(F)F)s4)ncc23)CC1 [Example 353]

>  <IC50 (nM)>
12.6

$$$$
>  <molecule>
CC1(O)CCN(c2cc(S(=O)(=O)NC3(C#N)CC3)cn3c(-c4nnc(C(F)F)s4)ncc23)CC1 [Example 65]

>  <IC50 (nM)>
7.02

$$$$

(A) CC1(NS(=O)(=O)c2cc(N3CCN(C(=O)[C@H]4C[C@H](F)CN4)CC3)c3cnc(-c4nnc(C(F)(F)F)s4)n3c2)CC1 [Example 323]
(B) CC1(NS(=O)(=O)c2cc(N3CCN(C(=O)[C@H]4CC(F)(F)CN4)CC3)c3cnc(-c4nnc(C(F)(F)F)s4)n3c2)CC1 [Example 352]
Qu. Lab log: flag the item ( A or B ) with the smaller IC50 figure. I would appreciate it if you answered with the label of your choice.
Ans. A
